# ASSAYED_SYSTEM: T1, human Y2 receptor (human, UniProt P49146 1-381)
# T1 sequence (looked up): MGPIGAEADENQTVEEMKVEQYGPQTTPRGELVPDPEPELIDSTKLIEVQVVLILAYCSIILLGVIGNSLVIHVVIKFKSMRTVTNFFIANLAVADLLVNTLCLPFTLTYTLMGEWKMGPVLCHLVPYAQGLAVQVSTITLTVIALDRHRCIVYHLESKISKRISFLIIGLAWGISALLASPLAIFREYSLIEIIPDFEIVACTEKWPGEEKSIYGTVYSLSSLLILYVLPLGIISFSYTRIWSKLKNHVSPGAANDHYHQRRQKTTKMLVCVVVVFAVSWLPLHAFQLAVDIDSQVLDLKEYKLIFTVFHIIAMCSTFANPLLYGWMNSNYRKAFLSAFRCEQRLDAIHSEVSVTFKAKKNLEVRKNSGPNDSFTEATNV
# ASSAY_SUMMARY: cell-based or functional assay
Starred links: 1 amine or outer side, 2 acyl side, 3 side chain; linkers in the order of their positions; H or OH if unused. Non-standard residues stand in square brackets, D forms with d. No end group written: not given here. *: point of attachment. Thr(Me) = O-methylthreonine, CO[C@H](C)[C@H](N[*:1])C(=O)[*:2]; hArg = N=C(N)NCCCC[C@H](N)C(=O)O; Cha = N[C@@H](CC1CCCCC1)C(=O)O; 4Amb = NCc1ccc(C(=O)O)cc1; Aib = CC(C)(N)C(=O)O; Bz = O=C(c1ccccc1)*
We label by threshold. Values of GBA EC50 Ratio (vs PYY(3-36)), [35S]GTPγS strictly beneath 7 ratio are Condition met. Values of 7 ratio and up are Condition not met.

Find out if reported GBA EC50 Ratio (vs PYY(3-36)), [35S]GTPγS for [4Amb]RAYINLIT[hArg]QRY-NH2 (N-terminus assumed; SMILES CC[C@H](C)[C@H](NC(=O)[C@H](Cc1ccc(O)cc1)NC(=O)[C@H](C)NC(=O)[C@H](CCCNC(=N)N)NC(=O)c1ccc(CN)cc1)C(=O)N[C@@H](CC(N)=O)C(=O)N[C@@H](CC(C)C)C(=O)N[C@H](C(=O)N[C@H](C(=O)N[C@@H](CCCCNC(=N)N)C(=O)N[C@@H](CCC(N)=O)C(=O)N[C@@H](CCCNC(=N)N)C(=O)N[C@@H](Cc1ccc(O)cc1)C(N)=O)[C@@H](C)O)[C@@H](C)CC, also called compound No. 11) [4-Aminomethylbenzoyl-[Ala26, Ile28,31, Har33]-PYY(25-36)] is less than 7 ratio Condition not met

For this binder, is GBA EC50 Ratio (vs PYY(3-36)), [35S]GTPγS lower than 7 ratio? Ac-E[dP]RH[Cha][Cha]NK[Aib]TRQR[Cha]-NH2 (SMILES CC(=O)N[C@@H](CCC(=O)O)C(=O)N1CCC[C@@H]1C(=O)N[C@@H](CCCNC(=N)N)C(=O)N[C@@H](Cc1c[nH]cn1)C(=O)N[C@@H](CC1CCCCC1)C(=O)N[C@@H](CC1CCCCC1)C(=O)N[C@@H](CC(N)=O)C(=O)N[C@@H](CCCCN)C(=O)NC(C)(C)C(=O)N[C@H](C(=O)N[C@@H](CCCNC(=N)N)C(=O)N[C@@H](CCC(N)=O)C(=O)N[C@@H](CCCNC(=N)N)C(=O)N[C@@H](CC1CCCCC1)C(N)=O)[C@@H](C)O, also called compound No. 137) [Ac-[Glu23, D-Pro24, Cha27,28,36, Lys30, Aib31]-PYY(23-36)] Condition met

API: query returns whether the binder falls strictly under 7 ratio in GBA EC50 Ratio (vs PYY(3-36)), [35S]GTPγS. Query: [4Amb]RARINLITRQRY-NH2 (N-terminus assumed; SMILES CC[C@H](C)[C@H](NC(=O)[C@H](CCCNC(=N)N)NC(=O)[C@H](C)NC(=O)[C@H](CCCNC(=N)N)NC(=O)c1ccc(CN)cc1)C(=O)N[C@@H](CC(N)=O)C(=O)N[C@@H](CC(C)C)C(=O)N[C@H](C(=O)N[C@H](C(=O)N[C@@H](CCCNC(=N)N)C(=O)N[C@@H](CCC(N)=O)C(=O)N[C@@H](CCCNC(=N)N)C(=O)N[C@@H](Cc1ccc(O)cc1)C(N)=O)[C@@H](C)O)[C@@H](C)CC, also called compound No. 29) [4-Aminomethylbenzoyl-[Ala26, Arg27, Ile28,31]-PYY(25-36)] Condition met

Check if GBA EC50 Ratio (vs PYY(3-36)), [35S]GTPγS falls below 7 ratio for Bz-RAYINLI[Thr(Me)]RQRY-NH2 (also called compound No. 74) [4-Aminomethylbenzoyl-[Ala26, Ile28,31, Thr(Me)32]-PYY(25-36)] . Condition not met
